These measurements were taken from paper PMC12076188.

biological target: Sodium channel Nav1.5 (Homo sapiens); assay: 41-target safety off-target activity panel
Sequence (Q14524 whole entry): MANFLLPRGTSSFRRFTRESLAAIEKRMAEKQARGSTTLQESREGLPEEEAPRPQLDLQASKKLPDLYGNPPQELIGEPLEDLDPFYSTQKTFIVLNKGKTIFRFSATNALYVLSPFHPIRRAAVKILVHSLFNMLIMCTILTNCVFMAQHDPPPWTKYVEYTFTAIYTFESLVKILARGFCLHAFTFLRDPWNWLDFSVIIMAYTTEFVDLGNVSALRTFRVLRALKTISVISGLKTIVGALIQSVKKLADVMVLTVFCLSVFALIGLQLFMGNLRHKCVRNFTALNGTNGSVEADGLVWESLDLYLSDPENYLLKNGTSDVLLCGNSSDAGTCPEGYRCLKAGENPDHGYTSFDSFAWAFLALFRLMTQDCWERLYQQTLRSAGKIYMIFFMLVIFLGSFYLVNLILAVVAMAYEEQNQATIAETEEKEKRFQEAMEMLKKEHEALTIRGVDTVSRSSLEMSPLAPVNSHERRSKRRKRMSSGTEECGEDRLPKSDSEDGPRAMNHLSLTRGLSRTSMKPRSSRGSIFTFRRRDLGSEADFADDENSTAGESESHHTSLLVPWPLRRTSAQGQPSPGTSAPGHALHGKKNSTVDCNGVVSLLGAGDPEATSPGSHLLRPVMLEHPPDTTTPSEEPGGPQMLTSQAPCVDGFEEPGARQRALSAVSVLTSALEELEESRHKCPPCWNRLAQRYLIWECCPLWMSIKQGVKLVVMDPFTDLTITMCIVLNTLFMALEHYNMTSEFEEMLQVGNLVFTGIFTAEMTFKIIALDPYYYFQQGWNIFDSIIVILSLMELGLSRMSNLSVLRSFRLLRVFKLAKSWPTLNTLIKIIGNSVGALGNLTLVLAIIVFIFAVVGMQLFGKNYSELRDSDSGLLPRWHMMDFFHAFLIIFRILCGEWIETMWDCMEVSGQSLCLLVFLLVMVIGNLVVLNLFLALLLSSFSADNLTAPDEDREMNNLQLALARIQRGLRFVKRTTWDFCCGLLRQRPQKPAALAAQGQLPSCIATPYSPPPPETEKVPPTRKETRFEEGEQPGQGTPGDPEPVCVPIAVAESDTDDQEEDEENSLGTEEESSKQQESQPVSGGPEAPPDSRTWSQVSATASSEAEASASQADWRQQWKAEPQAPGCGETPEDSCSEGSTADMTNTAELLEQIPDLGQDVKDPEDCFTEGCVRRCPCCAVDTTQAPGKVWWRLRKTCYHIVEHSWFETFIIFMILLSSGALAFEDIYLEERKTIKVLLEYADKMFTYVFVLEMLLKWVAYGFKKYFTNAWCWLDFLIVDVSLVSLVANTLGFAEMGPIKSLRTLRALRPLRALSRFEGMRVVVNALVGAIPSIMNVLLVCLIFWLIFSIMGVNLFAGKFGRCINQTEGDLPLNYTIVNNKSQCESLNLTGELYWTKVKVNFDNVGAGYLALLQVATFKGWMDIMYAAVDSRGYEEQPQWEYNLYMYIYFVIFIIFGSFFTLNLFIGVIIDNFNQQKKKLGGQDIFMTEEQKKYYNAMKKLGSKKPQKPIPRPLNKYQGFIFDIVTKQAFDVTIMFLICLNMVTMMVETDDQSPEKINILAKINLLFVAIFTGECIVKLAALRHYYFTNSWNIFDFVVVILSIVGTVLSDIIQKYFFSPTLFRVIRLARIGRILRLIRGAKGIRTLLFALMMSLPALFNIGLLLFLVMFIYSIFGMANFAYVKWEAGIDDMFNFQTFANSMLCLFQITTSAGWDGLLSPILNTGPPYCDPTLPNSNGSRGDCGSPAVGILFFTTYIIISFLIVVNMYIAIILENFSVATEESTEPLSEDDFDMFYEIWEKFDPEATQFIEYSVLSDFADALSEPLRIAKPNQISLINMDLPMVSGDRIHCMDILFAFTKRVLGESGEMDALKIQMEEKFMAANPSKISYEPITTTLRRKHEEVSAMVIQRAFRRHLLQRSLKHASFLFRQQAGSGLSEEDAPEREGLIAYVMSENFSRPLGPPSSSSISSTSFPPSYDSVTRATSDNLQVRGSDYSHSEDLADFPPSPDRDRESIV
QUANTITY NAME: inhibition at 10 µM (%)
Answer in %, number only, no unit symbol.

[in] Retrieve inhibition at 10 µM measured for "C=CC(=O)N1CCN(c2c(C#N)c(=O)n(-c3c(C)ccnc3C(C)C)c3nc(-c4c(N)c(F)c(F)c(F)c4F)c(Cl)cc23)CC1" and print it.
[out] 1.01

###

molecular target: GDP-bound NRAS WT (Homo sapiens, UniProt P01111); construct: His-tagged NRAS WT (aa 1–172); made in house; host or cells: Escherichia coli; test: SOS1-mediated guanine nucleotide exchange assay (TR-FRET); type: biochemical; conditions: GDP-bound NRAS WT; compound pre-incubation 25°C, 60 min; read-out: IC50
Sequence (P01111 1-172): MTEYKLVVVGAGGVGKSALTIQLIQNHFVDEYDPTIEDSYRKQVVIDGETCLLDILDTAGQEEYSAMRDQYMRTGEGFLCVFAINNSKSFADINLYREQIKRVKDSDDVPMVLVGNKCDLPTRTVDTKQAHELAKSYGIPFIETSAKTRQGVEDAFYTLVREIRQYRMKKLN
pIC50: −log10 of the molar value.
QUANTITY NAME: pIC50

[in] Retrieve pIC50 measured for C=CC(=O)N1CCN(c2nc(=O)n(-c3c(C)ccnc3C(C)C)c3nc(-c4c(O)cccc4F)c(F)cc23)[C@@H](C)C1 [Sotorasib, reference compound] and print it.
[out] < 5.00
